# targetOrSystem: BLMcore K869A K870A (Homo sapiens, UniProt P54132 636-1298, K869A;K870A)
# Sequence (P54132 636-1298 K869A/K870A): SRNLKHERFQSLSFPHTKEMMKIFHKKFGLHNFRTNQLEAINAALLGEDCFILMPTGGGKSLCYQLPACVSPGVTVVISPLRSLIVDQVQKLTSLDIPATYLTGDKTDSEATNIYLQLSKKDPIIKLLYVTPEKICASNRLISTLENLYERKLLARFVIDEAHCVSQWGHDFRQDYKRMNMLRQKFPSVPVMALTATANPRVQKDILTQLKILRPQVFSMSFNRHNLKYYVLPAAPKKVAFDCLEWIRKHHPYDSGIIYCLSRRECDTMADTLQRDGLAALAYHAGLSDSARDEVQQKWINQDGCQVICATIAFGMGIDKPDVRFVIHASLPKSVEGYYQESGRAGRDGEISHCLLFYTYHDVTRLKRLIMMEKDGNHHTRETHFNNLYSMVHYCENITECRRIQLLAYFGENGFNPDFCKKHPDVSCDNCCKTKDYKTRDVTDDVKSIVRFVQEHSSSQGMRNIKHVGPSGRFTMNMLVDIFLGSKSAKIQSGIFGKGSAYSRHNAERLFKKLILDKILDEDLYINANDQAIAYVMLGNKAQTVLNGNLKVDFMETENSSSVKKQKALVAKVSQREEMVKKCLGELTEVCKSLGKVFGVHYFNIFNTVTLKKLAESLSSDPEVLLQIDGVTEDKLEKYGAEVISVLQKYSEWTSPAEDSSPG
# measurementNotes: EMSA; 5 mM MgCl2; smear; estimated apparent KD; 50 mM Tris-HCl pH 7.5, 50 mM KCl, 5 mM MgCl2, 1 mM DTT, 0.1 mg/mL BSA, 40 nM DNA, 30 min room temperature; 5% gel in TBE + 100 mM KCl at 4 C
# setupConditions: protein: recombinant; (HisTrap purified); single strand
readoutName: Kd

Exercise: Given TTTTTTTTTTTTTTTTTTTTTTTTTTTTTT (ssDNA) [FAM-dT30 (ssDNA)] , state its recorded Kd.
Solution: ~312 nM
